- Tested on: NCI-H2023
- assay-procedure: relative viability (nuclei count vs DMSO), 5 days (fraction); higher = more cells survive
- test-parameters: first compound 0.253 µM
Listed below: relative viability values for each entry.

Recorded results for 2 compounds are shown here.
{"columns": ["compound", "relative viability"],
 "data": [
  ["C=C1C(=O)O[C@@H](CCCCCCCC)[C@@H]1C(=O)O [C-75] + C[C@]1(O)C[C@@H](c2nc(-c3ccc4ccc(-c5ccccc5)nc4c3)c3c(N)nccn32)C1 [Linsitinib] (partner 1 µM)", 0.824],
  ["Oc1nc(-c2ccc(C(F)(F)F)cc2)nc2c1CSCC2 [XAV939] + N=C(N)NC(=N)NCCc1ccccc1 [Phenformin] (partner 250 µM)", 0.391]
]}

Next up:
Lookup: Which measured relative viability belongs to Oc1nc(-c2ccc(C(F)(F)F)cc2)nc2c1CSCC2 [XAV939] + CC(C)C[C@H](NC(=O)[C@H](Cc1ccccc1)NC(=O)c1cnccn1)B(O)O [Bortezomib] (partner 0.002 µM) , tested on NCI-H2023?
Found: 0.785

###

- Tested on: EKVX
- assay-procedure: relative viability (nuclei count vs DMSO), 5 days (fraction); higher = more cells survive
- test-parameters: first compound 0.08 µM
Listed below: relative viability values for each entry.

Recorded results for 2 compounds are shown here.
{"columns": ["compound", "relative viability"],
 "data": [
  ["Oc1nc(-c2ccc(C(F)(F)F)cc2)nc2c1CSCC2 [XAV939] + C[C@@H](Oc1cc(-c2cnn(C3CCNCC3)c2)cnc1N)c1c(Cl)ccc(F)c1Cl [Crizotinib] (partner 1 µM)", 1.09],
  ["Oc1nc(-c2ccc(C(F)(F)F)cc2)nc2c1CSCC2 [XAV939] + COc1cccc2cc(-c3nc([C@H]4CC[C@H](C(=O)O)CC4)n4ncnc(N)c34)[nH]c12 [OSI-027] (partner 0.5 µM)", 0.719]
]}

Next up:
Lookup: # query: relative viability of entry C=C1C(=O)O[C@@H](CCCCCCCC)[C@@H]1C(=O)O [C-75] + CC(C)C[C@H](NC(=O)[C@H](Cc1ccccc1)NC(=O)c1cnccn1)B(O)O [Bortezomib] (partner 0.002 µM)
Found: 0.996

###

- System: NCI-H838
- assay-procedure: relative viability (nuclei count vs DMSO), 5 days (fraction); higher = more cells survive
- test-parameters: first compound 0.1265 µM
reported-property: relative viability

Recorded results for 5 compounds are shown here.
{"columns": ["compound", "tested-system", "measured"],
 "data": [
  ["O=C(O)c1ccc(-c2c[nH]c3ncc(-c4ccccc4)cc23)cc1C1CCCC1 + Nc1nc2[nH]cc(CCc3ccc(C(=O)N[C@@H](CCC(=O)O)C(=O)O)cc3)c2c(=O)[nH]1 [Pemetrexed] (partner 0.2 µM)", "NCI-H838", 0.265],
  ["O=C(O)c1ccc(-c2c[nH]c3ncc(-c4ccccc4)cc23)cc1C1CCCC1 + C[C@@H](Oc1cc(-c2cnn(C3CCNCC3)c2)cnc1N)c1c(Cl)ccc(F)c1Cl [Crizotinib] (partner 1 µM)", "NCI-H838", 0.952],
  ["O=C(O)c1ccc(-c2c[nH]c3ncc(-c4ccccc4)cc23)cc1C1CCCC1 + NC(=O)Nc1cc(-c2cccc(F)c2)sc1C(=O)N[C@H]1CCCNC1 [AZD7762] (partner 0.2 µM)", "NCI-H838", 1.07],
  ["O=C(O)c1ccc(-c2c[nH]c3ncc(-c4ccccc4)cc23)cc1C1CCCC1 + CS(=O)(=O)N1CCN(Cc2cc3nc(-c4cccc5[nH]ncc45)nc(N4CCOCC4)c3s2)CC1 [Pictilisib] (partner 1 µM)", "NCI-H838", 0.57],
  ["O=C(O)c1ccc(-c2c[nH]c3ncc(-c4ccccc4)cc23)cc1C1CCCC1 + C[C@]1(O)C[C@@H](c2nc(-c3ccc4ccc(-c5ccccc5)nc4c3)c3c(N)nccn32)C1 [Linsitinib] (partner 1 µM)", "NCI-H838", 1.16]
]}

Next up:
Lookup: # query: relative viability of entry O=C(O)c1ccc(-c2c[nH]c3ncc(-c4ccccc4)cc23)cc1C1CCCC1 + CC(=O)c1c(C)c2cnc(Nc3ccc(N4CCNCC4)cn3)nc2n(C2CCCC2)c1=O [Palbociclib] (partner 0.5 µM)
Found: 0.267
